The reported numbers originate from paper PMC2705653.

binders and their reported pKd
SUBJECT OF TEST: T1, Swi6, full length, wild type (S. pombe, UniProt P40381 1-328)
T1 sequence (looked up): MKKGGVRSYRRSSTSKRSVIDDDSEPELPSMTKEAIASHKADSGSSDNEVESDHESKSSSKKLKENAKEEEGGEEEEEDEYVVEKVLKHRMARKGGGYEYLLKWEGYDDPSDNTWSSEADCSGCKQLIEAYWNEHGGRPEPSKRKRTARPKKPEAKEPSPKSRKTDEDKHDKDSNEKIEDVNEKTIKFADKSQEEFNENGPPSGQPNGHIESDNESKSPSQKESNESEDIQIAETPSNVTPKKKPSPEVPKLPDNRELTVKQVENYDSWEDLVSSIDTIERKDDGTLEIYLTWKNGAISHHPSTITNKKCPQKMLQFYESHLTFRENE
ASSAY NOTES: fluorescence polarisation
Scale: negative log10 of molar concentration, which is what pKd denotes.

| BINDER | pKd |
| --- | --- |
| ARTKQTARKSTGGKAY (trimethyl-lysine at 9) [H3K9me3 peptide (fluorescence polarization)] | 5.48 |

Query binder follows.
Give a short answer stating reported pKd for ARTKQTARKSTGGKAY (dimethyl-lysine at 9; fluorescein (position not given)) [fluorescein labeled H3K9me2 peptide] .
4.99
